This collection of values is drawn from patent US4581360A.

System: ribosomes from E. coli (peptidyl transferase)
Experiment: fragment reaction, cell-free system
Type: biochemical
Details: 30% ethanol in water, 30 min, read-out: ED50 E. coli fragment reaction
PROPERTY NAME: IC50 (µM)
Numbers only, in µM.

Solved cases below.
* CSC[S@+]([O-])C[C@H](CO)NC(=O)/C=C/c1c(C)[nH]c(=O)[nH]c1=O [sparsomycin, Sparsomycin (Sc -Rs)] | 6
* CSC[S@+]([O-])C[C@H](COC(C)=O)NC(=O)/C=C/c1c(C)[nH]c(=O)[nH]c1=O [O--acetylsparsomycin, O-acetyl-sparsomycin (Sc -Rs)] | 15

Below: the item to evaluate.
Request: Query IC50 for CCCCCCCCSC[S@+]([O-])C[C@H](CO)NC(=O)/C=C/c1c(C)[nH]c(=O)[nH]c1=O [n-octylsparsomycin, n-octyl-sparsomycin (Sc -Rs)]
Response: 80

====

Assay: pharmacokinetics in dog
Conditions: in vivo, iv, 1.48 mg/kg
PROPERTY NAME: AUC
Write your answer as a measured quantity: the number, then the unit.

Request: Output measured AUC for this item: CSC[S@+]([O-])C[C@H](CO)NC(=O)/C=C/c1c(C)[nH]c(=O)[nH]c1=O [sparsomycin, Sparsomycin (Sc -Rs)]
Response: 10800 ng·h/mL

====

Test: pharmacokinetics in dog
Settings: in vivo, iv, 1.48 mg/kg
PROPERTY NAME: half-life (h)
Give bare numbers, in h.

Request: Consider the compound CSC[S@+]([O-])C[C@H](CO)NC(=O)/C=C/c1c(C)[nH]c(=O)[nH]c1=O [sparsomycin, Sparsomycin (Sc -Rs)] . State its measured half-life.
Response: 2.3

====

Assay: pharmacokinetics in dog
Details: in vivo, iv, 0.7 mg/kg
PROPERTY NAME: AUC (ng·h/mL)
Give bare numbers, in ng·h/mL.

* CSC[S@+]([O-])C[C@H](CO)NC(=O)/C=C/c1c(C)[nH]c(=O)[nH]c1=O [sparsomycin, Sparsomycin (Sc -Rs)] | 1300

Request: Indicate its recorded AUC; the compound in question is CCCCCCCCSC[S@+]([O-])C[C@H](CO)NC(=O)/C=C/c1c(C)[nH]c(=O)[nH]c1=O [n-octylsparsomycin, n-octyl-sparsomycin (Sc -Rs)]
Response: 1100

====

Assay: pharmacokinetics in dog
Conditions: in vivo, iv, 0.7 mg/kg, Recovery in urine, i.v. bolus
PROPERTY NAME: dose excreted (%)
Give bare numbers, in %.

Request: Name the recorded dose excreted of the item CSC[S@+]([O-])C[C@H](CO)NC(=O)/C=C/c1c(C)[nH]c(=O)[nH]c1=O [sparsomycin, Sparsomycin (Sc -Rs)] in your answer.
Response: 24

====

Assay: pharmacokinetics in dog
Conditions: in vivo, iv, 1.48 mg/kg, Recovery in gall liquid, i.v. bolus
PROPERTY NAME: dose excreted (%)
One number for each entry, in %.

Request: Look up dose excreted of CSC[S@+]([O-])C[C@H](CO)NC(=O)/C=C/c1c(C)[nH]c(=O)[nH]c1=O [sparsomycin, Sparsomycin (Sc -Rs)] and report it.
Response: 2

====

Assay: pharmacokinetics in dog
Conditions: in vivo, iv, 0.9 mg/kg
PROPERTY NAME: half-life (h)
Numbers only, in h.

Request: Please give measured half-life of the following entry: CCCCCCCCSC[S@+]([O-])C[C@H](CO)NC(=O)/C=C/c1c(C)[nH]c(=O)[nH]c1=O [n-octylsparsomycin, n-octyl-sparsomycin (Sc -Rs)]
Response: 1.6

====

Test: pharmacokinetics in dog
Settings: bile, iv, 0.7 mg/kg
PROPERTY NAME: dose excreted (%)
Numbers only, in %.

Request: Item CCCCCCCCSC[S@+]([O-])C[C@H](CO)NC(=O)/C=C/c1c(C)[nH]c(=O)[nH]c1=O [n-octylsparsomycin, n-octyl-sparsomycin (Sc -Rs)] : provide dose excreted
Response: 3.4

====

Assay: pharmacokinetics in dog
Conditions: in vivo, iv, 0.9 mg/kg
PROPERTY NAME: AUC

Request: Output AUC of CCCCCCCCSC[S@+]([O-])C[C@H](CO)NC(=O)/C=C/c1c(C)[nH]c(=O)[nH]c1=O [n-octylsparsomycin, n-octyl-sparsomycin (Sc -Rs)]
Response: 1200 ng·h/mL

====

Test: pharmacokinetics in dog
Conditions: in vivo, iv, 1.48 mg/kg, Recovery in urine, i.v. bolus
PROPERTY NAME: dose excreted (%)
Numbers only, in %.

Request: Answer with the recorded dose excreted of CSC[S@+]([O-])C[C@H](CO)NC(=O)/C=C/c1c(C)[nH]c(=O)[nH]c1=O [sparsomycin, Sparsomycin (Sc -Rs)] only.
Response: 55

====

Experiment: solubility in water
Type: physicochemical
Settings: H2O, pH=7, read-out: Solubility in H2O (pH=7)
PROPERTY NAME: solubility (µg/mL)
One number for each entry, in µg/mL.

Request: Return value of solubility for input Cc1[nH]c(=O)[nH]c(=O)c1C=CC(=O)NC(CO)C[S+]([O-])CSCc1ccccc1 (stereo not shown) [benzylsparsomycin, Benzylsparsomycin (Sc -Rs)] , no commentary.
Response: 1500

====

Provide the recorded solubility for the entries that follow.
Assay: solubility in water
Type: physicochemical
Conditions: read-out: solubility in water

* CCCCCCCCSC[S@+]([O-])C[C@H](CO)NC(=O)/C=C/c1c(C)[nH]c(=O)[nH]c1=O [n-octylsparsomycin, n-octyl-sparsomycin (Sc -Rs)] | ~200 µg/mL

Request: Indicate the recorded solubility value for this molecule: Cc1[nH]c(=O)[nH]c(=O)c1C=CC(=O)NC(CO)C[S+]([O-])CSCc1ccccc1 (centres unmarked) [benzylsparsomycin, Benzylsparsomycin (Sc -Rs)]
Response: 1500 µg/mL

====

System: ribosomes from Saccharomyces cerevisiae (peptidyl transferase)
Assay: fragment reaction, cell-free system
Type: biochemical
Conditions: 30% ethanol in water, 30 min, read-out: ED50 s.c. fragment reaction
For each record, write down the corresponding IC50.
Numbers only, in µM.

// known answers, use as guide
- CSC[S@+]([O-])C[C@H](CO)NC(=O)/C=C/c1c(C)[nH]c(=O)[nH]c1=O [sparsomycin, Sparsomycin (Sc -Rs)]: 15
- CCCCCCCCSC[S@+]([O-])C[C@H](CO)NC(=O)/C=C/c1c(C)[nH]c(=O)[nH]c1=O [n-octylsparsomycin, n-octyl-sparsomycin (Sc -Rs)]: 180

Request: Using ribosomes from Saccharomyces cerevisiae (peptidyl transferase) as the test system, report measured IC50 of CSC[S@+]([O-])C[C@H](COC(C)=O)NC(=O)/C=C/c1c(C)[nH]c(=O)[nH]c1=O [O--acetylsparsomycin, O-acetyl-sparsomycin (Sc -Rs)] .
Response: 50

====

Hi there, I'd appreciate the recorded half-life for every entry that follows.
Assay: pharmacokinetics in dog
Conditions: in vivo, iv, 0.7 mg/kg
Numbers only, in h.

- CSC[S@+]([O-])C[C@H](CO)NC(=O)/C=C/c1c(C)[nH]c(=O)[nH]c1=O [sparsomycin, Sparsomycin (Sc -Rs)]: 1.1

Consider now this further molecule.
Request: Consider the molecule CCCCCCCCSC[S@+]([O-])C[C@H](CO)NC(=O)/C=C/c1c(C)[nH]c(=O)[nH]c1=O [n-octylsparsomycin, n-octyl-sparsomycin (Sc -Rs)] and give its recorded half-life.
Response: 1.1
